Test system: Herpes simplex virus-2 (G)
Experiment: microbe, parasite or virus in culture
Type: cell-based
Settings: Human alphaherpesvirus 2, read-out: EC50 Herpes simplex virus-2 (G)
So basically: is EC50 under 60 µg/mL? Then 1 (yes). Not under? Then 0 (no).

Take a look at these entries with their results.
molecule="NC(=O)c1ncn([C@@H]2O[C@H](CO)[C@@H](O)[C@H]2O)n1 [Ribavirin, reference compound]" category="0 (no)"
molecule=O=C(O)c1cc(Br)ccc1-n1c(-c2ccccc2)nc2ccc(Br)cc2c1=O category="1 (yes)"
molecule=O=C(O)c1cc(Br)ccc1-n1c(-c2ccccc2)nc2ccccc2c1=O category="1 (yes)"
molecule="O=c1[nH]c(=O)n([C@H]2C[C@H](O)[C@@H](CO)O2)cc1/C=C/Br [Brivudin, reference compound]" category="1 (yes)"
molecule=O=C(O)c1ccccc1-n1c(-c2ccccc2)nc2c(Br)cc(Br)cc2c1=O category="1 (yes)"

stdin: Lab log: compare recorded EC50 with 60 µg/mL; is it strictly lower for O=C(O)c1cc(Br)cc(Br)c1-n1c(-c2ccccc2)nc2c(Br)cc(Br)cc2c1=O ?
stdout: 0 (no)

These data points were gathered from paper PMC3178989.
